Biological target: Poly [ADP-ribose] polymerase 1 (Homo sapiens)
Sequence (P09874 whole entry): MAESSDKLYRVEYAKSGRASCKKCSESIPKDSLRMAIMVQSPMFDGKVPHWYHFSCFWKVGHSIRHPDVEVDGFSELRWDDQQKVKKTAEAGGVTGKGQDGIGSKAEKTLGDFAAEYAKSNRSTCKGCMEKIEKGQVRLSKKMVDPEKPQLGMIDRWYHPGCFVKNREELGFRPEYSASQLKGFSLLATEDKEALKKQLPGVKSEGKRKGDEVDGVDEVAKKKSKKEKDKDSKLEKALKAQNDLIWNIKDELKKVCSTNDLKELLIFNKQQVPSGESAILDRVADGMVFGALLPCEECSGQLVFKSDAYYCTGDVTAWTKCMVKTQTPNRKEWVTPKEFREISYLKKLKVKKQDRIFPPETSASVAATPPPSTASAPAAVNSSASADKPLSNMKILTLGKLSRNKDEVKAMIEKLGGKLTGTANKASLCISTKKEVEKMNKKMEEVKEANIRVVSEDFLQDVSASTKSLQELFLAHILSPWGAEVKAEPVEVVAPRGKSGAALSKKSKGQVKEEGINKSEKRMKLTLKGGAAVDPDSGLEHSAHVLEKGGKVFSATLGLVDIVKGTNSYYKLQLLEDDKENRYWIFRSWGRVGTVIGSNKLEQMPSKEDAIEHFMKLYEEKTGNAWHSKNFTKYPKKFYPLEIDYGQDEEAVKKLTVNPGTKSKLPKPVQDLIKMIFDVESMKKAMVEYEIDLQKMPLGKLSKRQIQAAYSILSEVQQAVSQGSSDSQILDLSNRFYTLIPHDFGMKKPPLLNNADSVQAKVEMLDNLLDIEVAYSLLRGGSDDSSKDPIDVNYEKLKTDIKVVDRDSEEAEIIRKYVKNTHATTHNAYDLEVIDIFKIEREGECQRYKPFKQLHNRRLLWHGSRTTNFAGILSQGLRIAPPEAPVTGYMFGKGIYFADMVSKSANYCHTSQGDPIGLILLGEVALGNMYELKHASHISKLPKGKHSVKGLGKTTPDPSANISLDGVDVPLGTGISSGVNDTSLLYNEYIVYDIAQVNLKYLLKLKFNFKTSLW
Experiment: Inhibition of PARP-1 (unknown origin) assessed as NAD+ consumption after 20 mins by fluorometric analysis in presence of activated DNA
Measured Metric: pIC50
Give bare numbers, as −log10 of the molar value.

Documented pIC50 of O=C1NCCn2c(-c3ccc(OCCF)cc3)nc3cccc1c32 : 8.20
